Origin of the recorded values: the nanobody polyreactivity screen of Harvey et al. (2022)

assay: yeast display, Sf9 membrane polyspecificity reagent, FACS + sequencing; frameworks hold sequencing errors
observed_property: polyreactivity (PSR sort gate)

Look over these answered cases.
- item_sequence: "QVQLVESGGGLVQAGGSLRLSCAASGRTFGYNAMGWYRQAPGKERELVAAISYSGGRTYYADSVKGRFTISRDNAKNTVYLQMNSLKPEDTAVYYCAAKNPYKYDYWGQGTQVTVSS"
  polyreactivity (PSR sort gate): "high polyreactivity"
- item_sequence: "QVQLVESVGGLVQAGGSLRLSCAASGRTLYPNAMGWYRQAPGKERELVASISWSGVSTYYADSVKGRFTISRDNAKNTVYLQMNSLKPEDTAVYYCNAVGYWSDGLVWYEGDYWGQGTQVTVSS"
  polyreactivity (PSR sort gate): "low polyreactivity"
- item_sequence: "HVQLVESGGGLVQAGGSLRLSCAASGSTFYRNAMGWYREAPGKEWEFVADITLGGGSTYYADSVKGRFTISRDNAKNTVYLQMNSLKPEDTAVYYCAVDYWQLNYDYWGQGTQVTVSS"
  polyreactivity (PSR sort gate): "low polyreactivity"
- item_sequence: "QDQIVESGGGVVQAGGSLRLSCASSGRIFYDYLGWNRQAPGKETELDADISSGGSTHYADSVKGRFTISRDNAKNTVYLQMNSLKGEDTAVYYCIAVLVLSYDKDWRLIEMDYWGQGTHVTVSS"
  polyreactivity (PSR sort gate): "low polyreactivity"

Field: next sequence
Field request: polyreactivity (PSR sort gate) | item: QVQLVESGGGLVQAGGSLRLSCAASGRIFKPNAMGGSRQAPGKEREFVARITRNTGSTYYADSVKGRFTISRDNAKNTVYLQMNSLKPEDTAVYYCAARFYRRNRFNYWGQGTLVTVSS
high polyreactivity

----------
assay: yeast display, Sf9 membrane polyspecificity reagent, FACS + sequencing; frameworks hold sequencing errors
observed_property: polyreactivity (PSR sort gate)

- item_sequence: "QVEHLDSGGGLVQAGGILRLSCASSGIIFGYYAMGWYRQEPGKERELVAGITYRTGSTYYADSVKGRFTISRDNAKNTVYLQMNSLKPEDTEVYFCAATQYTRNYSSWYYYWGQGTQVTVSS"
  polyreactivity (PSR sort gate): "high polyreactivity"
- item_sequence: "QVQLVESGGGLVQAGGSLRLSCAASGSTFFRYAMGLYRQAPGKERELVAAISWSGGTTYYADSVKGRFTISRDNAQNTVYLQMYSLKPEDTAVYYCNAVRQGHILDYWGQGTQVTVSS"
  polyreactivity (PSR sort gate): "low polyreactivity"
- item_sequence: "QVQLVESGGGLVQAGGSLRLSCAASGRIFTYNAMGWYRQAPGKERELVAVITSGGSTYYADSVKGRFTISRDNAKNTVYLQMNSLKPEDTAVYYCAARVWGSSQYYYWGQGTQVTVSS"
  polyreactivity (PSR sort gate): "low polyreactivity"
- item_sequence: "QVQLVESGGGLVQAGGSLRLSCAASGSIFTKYAMGWYRQAPGKERELLAAITSSSGRTYYADSVKGRFTISRDNAKNTVYLQMNSLKPEDTAVYYCNRGKRVAVSYRPGGYDYWGQGTQVTVSS"
  polyreactivity (PSR sort gate): "high polyreactivity"

Kindly consider the entry below.
// query polyreactivity (PSR sort gate) value for entry QVQLVESGGGLVQAGGSLRLSCAASGSTFGYYAMGWYRQAPGKERELVATMSATGGSTYYADSVKGRFTISRDKAKNTVYLQMNSLKPEDTAVYYCNAEYDRGNEYDYWGQGTQVTVSS
low polyreactivity
